The compounds listed here are annotated with their GI50.
system: MCF7 (Breast); test: NCI Developmental Therapeutics antiproliferative assay, MCF7; assay type: cell-based, human
Report as a plain number; the unit nM is understood.

Query: Suppose we examine the compound O=C1c2ccccc2-c2c1c1ccccc1c(=O)n2C[C@H](O)[C@H](O)[C@H](O)[C@H](O)CO [Compound 17h] ; what GI50 value has been reported?
Response: 1780

* * *

The compounds listed here are annotated with their GI50.
system: DU-145 (Prostate); experiment: NCI Developmental Therapeutics antiproliferative assay, DU-145; format: cell-based, human

compound: COc1cc2c3c(n(C[C@H](O)CO)c(=O)c2cc1OC)-c1ccccc1C3=O [Compound 29]
parameter: GI50
recorded-result: 0.419 µM

Query: Suppose we examine the compound C[C@@H](O)Cn1c2c(c3ccccc3c1=O)C(=O)c1ccccc1-2 [Compound 27a] ; what GI50 value has been reported?
Response: 8.32 µM

Query: Thanks! And C[C@H](O)Cn1c2c(c3ccccc3c1=O)C(=O)c1ccccc1-2 [Compound 27c] ?
Response: 4.36 µM

Query: Thanks! And NC[C@H](O)Cn1c2c(c3ccccc3c1=O)C(=O)c1ccccc1-2 [Compound 27d] ?
Response: 0.13 µM

Query: Thanks! And O=C1c2ccccc2-c2c1c1ccccc1c(=O)n2C[C@H](O)[C@H](O)[C@H](O)[C@H](O)CO [Compound 17h] ?
Response: 3.31 µM
